Data provenance is patent US20090041783A1.

target: T1, human GPVI extracellular region-human Fc fusion protein (hGPVI-hFc) (human); test: ELISA on immobilised hGPVI-hFc; + A450 0.5-1.0, ++ 1.0-2.0, +++ more than 2.0
T1 construct: Expressed in COS-1, purified on Protein A; also called GPVI-HHH-hFc; hGPVIHHH-hFc
T1 sequence (chain, as listed by the source limits assumed): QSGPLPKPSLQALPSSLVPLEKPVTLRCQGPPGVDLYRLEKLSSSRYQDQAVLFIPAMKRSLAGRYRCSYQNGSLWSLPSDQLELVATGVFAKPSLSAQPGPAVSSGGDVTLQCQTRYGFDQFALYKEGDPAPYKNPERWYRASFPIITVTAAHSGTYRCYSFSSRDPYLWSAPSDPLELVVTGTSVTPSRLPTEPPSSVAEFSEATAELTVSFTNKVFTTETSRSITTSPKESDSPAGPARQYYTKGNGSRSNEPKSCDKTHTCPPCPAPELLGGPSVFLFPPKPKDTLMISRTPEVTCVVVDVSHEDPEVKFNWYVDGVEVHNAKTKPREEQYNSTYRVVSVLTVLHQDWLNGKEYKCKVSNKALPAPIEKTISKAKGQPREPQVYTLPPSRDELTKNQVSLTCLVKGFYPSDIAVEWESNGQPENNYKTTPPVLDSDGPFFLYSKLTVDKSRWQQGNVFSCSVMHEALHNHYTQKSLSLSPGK
metric: absorbance

stdin: Consider the binder F1245-4-1 (antibody, V domains shown) VH: QVQLQQPGAELVKPGASVKLSCKASGCTFTSYWMHWVKQRPGQGLEWIGMIHPNSDNTNYNEKFKSKATLTVDKSSSTAYMHLSSLTSEDSAVYYCATHYYDYVDYWGQGTTLTVSS VL: NIVMTQTPKFLLVSAGDRVTITCKASQSVSNDVAWYQQKPGQSPKLLIYYASNRYTGVPDRFTGSGYGTDFTFTISTVQAEDLAVYFCQQDYSSPWTFGGGTKLEIKR and give its recorded absorbance.
stdout: > 2 od

stdin: Consider the binder F1245-6-2 (antibody, V domains shown) VH: QVQLQQPGAELVKPGASVKLSCKASGYTFTSYWMHWVKQRPGQGLEWIGMIHPNSGSTNYNEKFKSKATLTVDKSSSTAYMQLSSLTSEDSAVYYCARGGVTPVAYWGQGTLVTVSA VL: SIVMTQTPKFLLVSAGDRVTITCKASQSVSNDVAWYQQKPGQSPKLLIYYASNRYTGVPYRFTGSGYGTDFTFTISTVQAEDLAVYFCQQDYSSPWTFGGGTKLEIKR and give its recorded absorbance.
stdout: 1 to 2 od

stdin: Consider the binder F1249-18-2 (antibody, V domains shown) VH: QVQLQQPGAELVKPGASVKLSCKASGYTFTSYWMHWLKQRPGQGLEWIGMIHPNSDITNYNEKFKNKATLTVDKSSSTAYMQLSSLTSEDSAVYYCARSGDYYAMDYWGQGTSVTVSS VL: SIVMTQTPKFLLVSAGDRVTITCKASQSVSNDVAWYQQKPGQSPKLLIYYASNRYTGVPDRFTGSGYGTDFTFTISTVQAEDLAVYFCQQDYSSPPTFGGGTKLEIKR and give its recorded absorbance.
stdout: > 2 od
